Biological target: T1, human SLC34A2 (human, UniProt O95436 1-690)
T1 construct: whole, on cells; also called human solute carrier 34 A2; NaPi2b
T1 sequence (looked up): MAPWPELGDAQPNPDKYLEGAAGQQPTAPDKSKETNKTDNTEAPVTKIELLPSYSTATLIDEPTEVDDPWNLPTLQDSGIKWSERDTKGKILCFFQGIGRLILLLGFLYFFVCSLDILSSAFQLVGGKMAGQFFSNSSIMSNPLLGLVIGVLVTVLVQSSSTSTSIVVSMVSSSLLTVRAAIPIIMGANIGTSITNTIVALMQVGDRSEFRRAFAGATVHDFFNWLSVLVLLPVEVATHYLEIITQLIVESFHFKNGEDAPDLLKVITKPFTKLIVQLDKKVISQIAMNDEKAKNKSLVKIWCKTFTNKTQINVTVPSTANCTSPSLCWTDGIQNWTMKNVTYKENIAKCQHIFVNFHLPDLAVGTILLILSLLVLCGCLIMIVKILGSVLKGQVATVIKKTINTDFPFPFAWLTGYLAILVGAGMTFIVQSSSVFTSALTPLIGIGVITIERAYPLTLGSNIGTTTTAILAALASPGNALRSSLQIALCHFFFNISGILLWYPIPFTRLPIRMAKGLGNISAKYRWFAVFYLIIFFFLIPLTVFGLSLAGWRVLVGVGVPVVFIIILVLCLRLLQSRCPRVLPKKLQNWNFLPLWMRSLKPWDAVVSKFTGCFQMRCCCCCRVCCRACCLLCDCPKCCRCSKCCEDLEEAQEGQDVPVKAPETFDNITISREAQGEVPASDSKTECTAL
Experiment: FACS, RMG-1 cells
quantity: EC50 (nM)
Numeric answer only, unit nM assumed.

Worked set:
binder="xi90G10H7 hIgG1 (antibody, V domains shown, chimeric, hIgG1) VH: QVQLQQPGAVLVKPGASVKMSCKASGYTFTSYIIHWVKQTPGQGLEWVGAIYPGNGDASSIQKFKGKATLTVDKSSSTAYMQLSSLTSADSAVYYCARGHYYGSAAWFAYWGQGTLVTVSA VL: DILLTQSPAILSVSPGERVSFSCRASQNIGTGIHWYQQRTNGSLRLLIKYASESISGIPSRFSGSGSGTDFTLSINSVESEDIADYYCQQSNSWPLTFGAGTKLELK" quantity=EC50 recorded_number=2.77
binder="xi94B10A8 hIgG1 (antibody, V domains shown, chimeric, hIgG1) VH: QVQLQQTGAELVKPGASVKMSCKASGYTFTGYIIHWIKQRPGQGLEWIGAIYPGNGDTSYNQKIKGRATLTADKSSTTAYMQLSSLTSEDSAVYYCARGDYGNPAWFAYWGQGTLVTVSA VL: DVVLTQSPATLSVTPGDRVSLSCRASQSISNYLYWYQQKAHESPRLLIKFASQSISGIPSRFRGSGSGTDFTLSINSVETEDFGMYFCQQSNKWPLTFGAGTKLELK" quantity=EC50 recorded_number=2.58

With those in mind, consider the next binder.
response.value for xi91C9F1 hIgG1 (antibody, V domains shown, chimeric, hIgG1) VH: EVQLQQSGPELVKPGTSVKISCKTSGFFFTEYIIHWVKQSHGRSLEWIGGIIPNNGVTNYKQNFRGKAALTADKSSNTAYMELRSLTSEDSAVYYCARWRNGYYSAMDSWGQGTSVTVSS VL: DIVVTQSHKFMSTSLGDRVSITCTASQDVGTAVAWYQQKPGHSPKLLIYWASTRHTGVPERFTGSGSGTDFTLTITNVQSEDLADYFCQQYRTSPLTFGVGTKLELK (field: EC50) = 1.3
